Values compiled from PubChem BioAssay (NCI).

# Tested on: OVCAR-5 ovarian
# procedureSummary: NCI-60 one-dose screen, 48 h
# conditions: 10 µM unless noted
The panel holds about 83,000 compounds, 20% with a hit somewhere; the sample as a whole holds those more often. Active and inactive are the calls of the source. The calls were made as follows: active = growth percent below 10; inactive = the rest.
Hi there, use one of these labels in your reply, thanks! true (1) for active, false (0) for inactive

Please review the following examples before continuing.
{"columns": ["molecule", "assayedSystem", "classification"],
 "data": [
  ["COc1cc(OC)c(C(=O)/C=C/c2cccc(C#N)c2)c(OC)c1", "OVCAR-5 ovarian", "false (0)"],
  ["CC/C(=C(\\c1ccc(O)cc1)c1ccc(OCCN(C)CCN(C)C(=O)CCC(=O)c2c(C)[nH]c(/C=C3\\N=C(c4ccc[nH]4)C=C3OC)c2C)cc1)c1ccccc1", "OVCAR-5 ovarian", "false (0)"],
  ["CCCOC(=O)C1(O)CCCC1", "OVCAR-5 ovarian", "false (0)"],
  ["COc1cccc(-n2cc(-c3nc(Cl)c4ccccc4n3)nn2)c1", "OVCAR-5 ovarian", "false (0)"],
  ["O=C(CCCn1c(=O)c2sc3ccccc3c2n2nnc(-c3ccccc3)c12)NCCc1cnc[nH]1", "OVCAR-5 ovarian", "true (1)"],
  ["COc1ncc(-c2ccc3ncnc(Nc4cccc(Cl)c4)c3c2)cc1NS(=O)(=O)C1CC1", "OVCAR-5 ovarian", "false (0)"],
  ["O=C1CCCCN1CCCCC#Cc1ccccc1C#Cc1ccc([N+](=O)[O-])cc1", "OVCAR-5 ovarian", "false (0)"],
  ["O=C(Nc1ccc(Cl)cc1)c1cc(-c2ccc(F)cc2)c2sc(=O)[nH]c2n1", "OVCAR-5 ovarian", "false (0)"]
]}

Prompt line: How was Cc1ccnc2nc(C(=O)OCC(=O)Nc3ccc(-c4ccccc4)cc3)nn12 classified in this test?
Response line: false (0)

Prompt line: How was O=C(/C=C/CN1CCOCC1)Nc1cc2c(Nc3ccc(F)c(Cl)c3F)ncnc2cc1OCCOC(F)F classified in this test?
Response line: false (0)

Prompt line: How was O=C(/C=C/CN1CCCCC1)Nc1cc2c(Nc3ccc(F)c(Cl)c3F)ncnc2cc1OCCOC(F)F classified in this test?
Response line: false (0)

Prompt line: How was CCN(CC)c1cc(/C=C/c2ccc(OC)c(OC)c2)nc2cc(F)c(F)cc12 classified in this test?
Response line: false (0)

Prompt line: How was CCc1cccc(C)c1NC(=O)c1sc2nc3c(cc2c1N)C(=O)CCC3 classified in this test?
Response line: false (0)

Prompt line: How was NC(=O)NNC(=O)c1ccccc1 classified in this test?
Response line: false (0)

Prompt line: How was O=C(Nc1ccc(OCc2nnc(-c3ccc(Cl)cc3)o2)c(F)c1)Nc1ccc(Cl)c(Cl)c1 classified in this test?
Response line: false (0)

Prompt line: How was Cc1ccc(S(=O)(=O)OC2COCOC2C(OS(=O)(=O)c2ccc(C)cc2)C2OCOCC2OS(=O)(=O)c2ccc(C)cc2)cc1 (stereo not given) classified in this test?
Response line: false (0)

Prompt line: How was COc1ccc(/C=C/C(=O)c2cccc(B(O)O)c2)cc1O classified in this test?
Response line: false (0)

Prompt line: How was CN1C(=O)[C@H]2c3c1cccc3[C@@]13NC(=O)O[C@H]1[C@H](CCC3(C)C)C2(C)C classified in this test?
Response line: false (0)

Prompt line: How was COc1ccc(NC(=O)c2cc3ccccc3nc2Nc2cc(OC)c(OC)c(OC)c2)cc1 classified in this test?
Response line: false (0)

Prompt line: How was C[N+](C)(C)c1ccc(CC2c3ccccc3-c3ccccc32)cc1 classified in this test?
Response line: false (0)
